Biological target: T1, membrane LIGHT A190S (human, UniProt O43557 1-240)
T1 chain: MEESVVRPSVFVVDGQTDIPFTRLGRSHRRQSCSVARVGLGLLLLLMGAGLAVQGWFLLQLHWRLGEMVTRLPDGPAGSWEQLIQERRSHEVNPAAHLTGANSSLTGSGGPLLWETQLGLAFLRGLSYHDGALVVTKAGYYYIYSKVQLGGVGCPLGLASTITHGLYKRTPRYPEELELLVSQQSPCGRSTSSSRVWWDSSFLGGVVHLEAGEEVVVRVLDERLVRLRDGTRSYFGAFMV
Test: flow cytometry, transfected HEK293FF, mAb at EC50
Below, each of the binders is paired with its reported binding, % of WT value.
property: binding, % of WT

- 3A07 (antibody, human IgG4, V domains shown, chimeric human IgG4 (S-to-P, L-to-E at 248), human CL; also called Parental 3A07) VH: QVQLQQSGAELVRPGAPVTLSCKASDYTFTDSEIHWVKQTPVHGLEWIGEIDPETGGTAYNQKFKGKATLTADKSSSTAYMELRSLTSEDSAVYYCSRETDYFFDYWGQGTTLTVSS VL: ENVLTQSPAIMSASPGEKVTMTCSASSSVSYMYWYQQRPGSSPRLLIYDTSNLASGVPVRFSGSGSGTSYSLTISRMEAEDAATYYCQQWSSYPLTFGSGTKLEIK: 47%
- 3B04 (antibody, human IgG4, V domains shown, chimeric: mouse variable domains on human IgG4 HC (S-to-P and L-to-E at 248) and human CL; also called Parental 3B04; 3B04 chimeric) VH: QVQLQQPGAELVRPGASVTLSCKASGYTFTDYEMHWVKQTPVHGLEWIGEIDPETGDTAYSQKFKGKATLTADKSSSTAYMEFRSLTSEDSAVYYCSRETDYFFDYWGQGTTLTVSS VL: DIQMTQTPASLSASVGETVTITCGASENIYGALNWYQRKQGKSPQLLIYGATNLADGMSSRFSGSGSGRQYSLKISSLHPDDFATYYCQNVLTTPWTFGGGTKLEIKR: 68%
- 2E08 (antibody, human IgG4, V domains shown, chimeric human IgG4 (S-to-P, L-to-E at 248), human CL; also called Parental 2E08) VH: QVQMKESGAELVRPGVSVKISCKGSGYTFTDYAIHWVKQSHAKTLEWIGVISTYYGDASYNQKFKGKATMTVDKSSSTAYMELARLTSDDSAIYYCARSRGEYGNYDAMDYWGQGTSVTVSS VL: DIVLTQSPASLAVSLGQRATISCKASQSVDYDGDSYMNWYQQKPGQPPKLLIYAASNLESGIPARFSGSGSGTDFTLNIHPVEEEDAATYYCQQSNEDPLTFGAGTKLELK: 93%
- 2B11 (antibody, human IgG4, V domains shown, chimeric human IgG4 (S-to-P, L-to-E at 248), human CL; also called Parental 2B11) VH: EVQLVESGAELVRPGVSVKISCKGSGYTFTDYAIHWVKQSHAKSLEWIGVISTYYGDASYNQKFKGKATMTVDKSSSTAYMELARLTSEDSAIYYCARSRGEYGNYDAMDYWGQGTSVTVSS VL: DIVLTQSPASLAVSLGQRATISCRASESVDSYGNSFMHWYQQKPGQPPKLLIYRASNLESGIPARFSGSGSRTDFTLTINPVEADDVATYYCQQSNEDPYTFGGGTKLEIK: 52%
